// Solubility lookup, one value per entry
- assayText: Solubility in ethanol
- Type: physicochemical
# output: bare number, implied unit g

Observe how each entry below is paired with its result.
compound	u	reportedMeasurement
CCCCCCCCCCCCCCCCCC(=O)NCCOC(=O)COc1ccc(Cl)cc1	g	1.88
CCCCCCCCCCCC(=O)NCCO	g	9.14
CCCCCCCCCCCCCCCCCC(=O)NCCOC(=O)COc1ccccc1C	g	3.08
CCCCCCCCCCCC(=O)NCCOC(=O)COc1ccc(Cl)cc1Cl	g	10.42
CCCCCCCCCCCCCCCCCC(=O)NCCOC(=O)COc1cccc(OC)c1	g	1.99

What value of Solubility has been recorded for this entry: `CCCCCCCCCCCCCCCCCC(=O)NCCOC(=O)COc1ccc(Cl)cc1Cl`
1.03

What value of Solubility has been recorded for this entry: CCCCCCCCCCCCCCCCCC(=O)NCCO [N-(2-HYDROXYETHYL)STEARAMIDE]
0.34

----------
// Solubility lookup, one value per entry
- assayText: Solubility in chloroform
- Assay type: physicochemical
# output: bare number, implied unit g

Observe how each entry below is paired with its result.
molecule	Solubility (g)
CCCCCCCCCCCCCCCCCC(=O)NCCOC(=O)COc1ccc(Cl)cc1Cl	10.22
CCCCCCCCCCCCCCCCCC(=O)NCCOC(=O)COc1ccc(Cl)cc1	4.37
CCCCCCCCCCCCCCCCCC(=O)NCCO [N-(2-HYDROXYETHYL)STEARAMIDE]	0.16
CCCCCCCCCCCCCCCCCC(=O)NCCOC(=O)COc1cccc(OC)c1	7.76
CCCCCCCCCCCC(=O)NCCOC(=O)COc1ccc(Cl)cc1Cl	15.1
CCCCCCCCCCCC(=O)NCCO	1.76

API: the following record is the query input.
What value of Solubility has been recorded for this entry: `CCCCCCCCCCCCCCCCCC(=O)NCCOC(=O)COc1ccccc1C`
53.97
